# targetUnderTest: human FPR2 (Homo sapiens (Human))
# Sequence (P25090 whole entry): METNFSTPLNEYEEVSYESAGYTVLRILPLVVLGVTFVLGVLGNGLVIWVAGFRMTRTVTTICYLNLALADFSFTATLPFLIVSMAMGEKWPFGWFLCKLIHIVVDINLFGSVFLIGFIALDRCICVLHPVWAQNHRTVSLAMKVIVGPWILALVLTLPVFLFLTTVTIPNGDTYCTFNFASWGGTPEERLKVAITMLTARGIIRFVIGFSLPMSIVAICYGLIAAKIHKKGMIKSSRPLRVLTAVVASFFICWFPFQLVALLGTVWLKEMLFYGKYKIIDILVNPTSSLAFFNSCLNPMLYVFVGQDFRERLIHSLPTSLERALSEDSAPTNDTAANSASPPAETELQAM
# experimentSummary: FPR2 cyclic adenosine monophosphate (cAMP) assay
# runConditions: CHO cells overexpressing human FPR2; forskolin 5 µM; inhibition of cAMP production; read-out: hFPR2 cAMP2 EC50
measureName: EC50 (nM)

A selection of reference data follows.
# compound, targetUnderTest, reading
measured = [
    ("COCC(CO)n1cccc(N2C[C@@H](c3ccc(OC)cc3)[C@H](NC(=O)c3ccc(Cl)cc3)C2=O)c1=O (stereo partly drawn) [Example 411]", "human FPR2 (Homo sapiens (Human))", 2.6),
    ("COc1cc(F)c([C@@H]2CN(c3cccnc3OC(F)F)C(=O)[C@H]2NC(=O)c2ccc(Cl)cc2)c(F)c1", "human FPR2 (Homo sapiens (Human))", 3.2),
    ("COCC(CO)n1cccc(N2C[C@@H](c3c(F)cc(OC)cc3F)[C@H](NC(=O)c3ccc(OC(F)(F)F)cc3)C2=O)c1=O (stereo partly drawn) [Example 144]", "human FPR2 (Homo sapiens (Human))", 3.6),
]

1 = COc1cc(F)c([C@@H]2CN(c3cncn(CC4CCOCC4)c3=O)C(=O)[C@H]2NC(=O)c2ccc(Cl)cc2)c(F)c1
2 = COc1cc(F)c([C@@H]2CN(c3c(C)ccn(CC4CNC(=O)O4)c3=O)C(=O)[C@H]2NC(=O)c2ccc(OC(F)F)cc2)c(F)c1 (stereo partly drawn) [Example 619]
3 = CC(O)Cn1cccc(N2C[C@@H](c3ccc(Cl)cc3)[C@H](NC(=O)c3ccc(Cl)cc3)C2=O)c1=O (stereo partly drawn)
4 = COc1cc(C2CC2)nc(N2C(=O)[C@@H](NC(=O)c3ccc(OC(F)(F)F)cc3)[C@H](c3c(F)cc(OC)cc3F)[C@@H]2C)c1
## Task Arrange the 4 compounds by rising EC50, starting with the smallest. Note for the reader: the ranking is given by listing the labels in the order requested.
## Result 3, 1, 2, 4
(3: 2.2 nM, 1: 4.5 nM, 2: 9.4 nM, 4: 480 nM)

1 = CCn1cc(F)cc(N2C[C@@H](c3c(F)cc(OC)cc3F)[C@H](NC(=O)c3ccc(OC(F)(F)F)cc3)C2=O)c1=O
2 = CCn1ccc(C)c(N2C[C@@H](c3ccc(OC)cc3F)[C@H](NC(=O)c3ccc(OC(F)F)cc3)C2=O)c1=O
3 = COc1ccnc(N2C[C@@H](c3c(F)cc(OC)cc3F)[C@H](NC(=O)c3ccc(OC(F)(F)F)cc3)C2=O)c1
4 = COc1cc(F)c([C@@H]2CN(c3nc(N4C[C@@H](C)N(C)[C@@H](C)C4)ccc3C#N)C(=O)[C@H]2NC(=O)c2ccc(Cl)cc2)c(F)c1
5 = COCCn1ncc(C)c(N2C[C@@H](c3c(F)cc(OC)cc3F)[C@H](NC(=O)c3ccc(OC(F)(F)F)cc3)C2=O)c1=O
## Task Place the items in sequence of falling EC50. Put the labels in the requested order and list them out.
## Result 3, 4, 1, 2, 5

A = COc1cc(F)c([C@@H]2CN(c3c(C)c4c(n(CCO)c3=O)CCC4)C(=O)[C@H]2NC(=O)c2ccc(Cl)cc2)c(F)c1
B = COc1cc(F)c([C@@H]2CN(c3cccn(CC(C)(CO)CO)c3=O)C(=O)[C@H]2NC(=O)c2ccc(OC(F)F)cc2)c(F)c1 [Example 218]
## Task Quick check, higher EC50 between A and B ? Write the label of whichever entry you select.
## Result B
(B: 5.7 nM, A: 3.3 nM)

I = COCCn1ccnc1N1C[C@@H](c2c(F)cc(OC)cc2F)[C@H](NC(=O)c2ccc(OC(F)F)cc2)C1=O
II = COc1cc(F)c([C@@H]2CN(c3ccc[nH]c3=O)C(=O)[C@H]2NC(=O)c2ccc(Cl)cc2)c(F)c1
III = COc1cc(F)c([C@@H]2CN(c3nc(N4C[C@@H](C)N(C)[C@@H](C)C4)ccc3OC)C(=O)[C@H]2NC(=O)c2ccc(OC(F)F)cc2)c(F)c1
IV = COc1cc(F)c([C@@H]2CN(c3cccnc3C#N)C(=O)[C@H]2NC(=O)c2ccc(OC(F)F)cc2)c(F)c1
V = COCCn1cnc(C)c(N2C[C@@H](c3c(F)cc(OC)cc3F)[C@H](NC(=O)c3ccc(Cl)cc3)C2=O)c1=O
## Task Order each entry by recorded EC50, climbing from the minimum. Dear reader, please state the labels in the requested order.
## Result II, I, III, V, IV
(II: 2.3 nM, I: 3.5 nM, III: 6.2 nM, V: 9 nM, IV: 28 nM)

1 = COCCn1ccc(C)c(N2C[C@@H](c3ccc(Cl)cc3)[C@H](NC(=O)c3ccc(OC(F)F)cc3)C2=O)c1=O
2 = CNC(=O)C(C)Nc1ccnc(N2C[C@@H](c3c(F)cc(OC)cc3F)[C@H](NC(=O)c3ccc(Cl)cc3)C2=O)c1C(F)(F)F (stereo partly drawn) [Example 275]
## Task For this pair, 1 and 2 , which shows a numerically higher EC50? Please reply using the label of the selected record.
## Result 1
